# solubility annotations
- method: Aqueous equilibrium solubility in pH 7.4 buffer
- protocolConditions: pH 7.4 aqueous phosphate buffer, pH 7.4, aqueous buffer, thermodynamic from solid
Could you give me the number in µg/mL? Just the number is fine.

compound	resultUnit	solubility
CCc1ccc(C(=O)NN(C(=O)c2cc(C)cc(C)c2)C(C)(C)C)cc1 [RG-102125]	µg/mL	0.6
CCc1ccc(C(=O)NN(C(=O)c2cc(C)cc(C)c2)C(C)(C)C)c(F)c1 [RG-101523]	µg/mL	1
CCc1c(OC)cccc1C(=O)NN(C(=O)c1cc(C)cc(C)c1)C(C)(C)C [RG-102240]	µg/mL	0.7

Ask | # get_value(readout='solubility', item= COc1ccc(C(=O)N(NC(=O)c2ccc3c(c2C)OCCO3)C(C)(C)C)c(OC)n1 [RG-115517] )
Reply | 14

---

- method: Bi-directional permeability, CACO-2
- Assay type: in vitro ADME
- protocolConditions: human, Caco-2, pH 7, Papp, B-to-A Avg
# Papp B→A at 2 h, 10 µM annotations
Number first, unit second: that is the form wanted.

For orientation, consider the following solved cases.
molecule	reading
COc1ccc(C(=O)N(NC(=O)c2ccc3c(c2C)OCCO3)C(C)(C)C)c(OC)n1	26.4 ×10⁻⁶ cm/s
COc1cccc(C(=O)NN(C(=O)c2cc(C)cc(C)c2)C(C)(C)C)c1C	27.1 ×10⁻⁶ cm/s
Cc1cc(C)cc(C(=O)N(NC(=O)c2ccc3c(c2C)OCCO3)C(C)(C)C)c1	21.1 ×10⁻⁶ cm/s

Ask | # get_value(readout='Papp B→A at 2 h, 10 µM', item= `CCc1ccc(C(=O)NN(C(=O)c2cc(C)cc(C)c2)C(C)(C)C)c(F)c1` )
Reply | 24.5 ×10⁻⁶ cm/s

Ask | # get_value(readout='Papp B→A at 2 h, 10 µM', item= CCC(N(NC(=O)c1cccc(C)c1C)C(=O)c1cc(C)cc(C)c1)C(C)(C)C (centres unmarked) )
Reply | 32.5 ×10⁻⁶ cm/s

---

# pEC50 annotations
- subjectOfTest: GAL4 DBD-CfEcR(DEF)/VP16AD-MmRXRE (Choristoneura fumiferana, UniProt O77240)
- method: 13B3 Assay (CHO stable cell line, luciferase reporter)
Keep in mind that pEC50 stands for -log10 of concentration in molar terms.

molecule	reading
CNCc1c(OC)cccc1C(=O)NN(C(=O)c1cc(C)cc(C)c1)C(C)(C)C	7.70

Ask | # get_value(readout='pEC50', item= `CC(C)(C)N(NC(=O)c1ccc(Cl)cc1)C(=O)c1ccccc1` )
Reply | 5.94

Ask | # get_value(readout='pEC50', item= `CCc1c(OC)cccc1C(=O)NN(C(=O)c1cc(C)cc(C)c1)C(C)(C)C=O` )
Reply | 5.15

---

# 27-63 assay Rel Max FI annotations
- subjectOfTest: GAL4 DBD (1-147)-CfEcR(DEF)/VP16AD-βRXREF-LmUSPEF (Choristoneura fumiferana)
- method: cell-based
- protocolConditions: maximum fold induction at any concentration relative to that of GS-E ligand; CHO 27-63 cells
Kindly provide the number alone.

For orientation, consider the following solved cases.
compoundString	property	reading
Cc1cc(C)cc(C(=O)N(NC(=O)c2ccc3c(c2C)OCCO3)C(C)(C)C)c1	27-63 assay Rel Max FI	0.948
Cc1cc(C)cc(C(=O)N(NC(=O)c2cc3c(cc2C)OCO3)C(C)(C)C)c1	27-63 assay Rel Max FI	1.159
COc1cc(C(=O)N(NC(=O)c2cccc(OC)c2C)C(C)(C)C)c(OC)nn1	27-63 assay Rel Max FI	0.001

Please find the next molecule below.
Ask | # get_value(readout='27-63 assay Rel Max FI', item= `CCc1c(OC)cccc1C(=O)NN(C(=O)c1cc(C)cc(C)c1)C(C)(C)C=NO` )
Reply | 1.279
